Target: T1, Human LOX-1 full-length protein (human, UniProt P78380 1-273)
T1 construct: also called huLOX-1/HEK293 cells; human LOX-1 transfected HEK293 cells
Assay: flow cytometry, inhibition of dil-OxLDL binding to huLOX-1/HEK293 cells
outcome_measure: IC50

Exam item: Fill in reported IC50 for this entry: FF3 (antibody, human IgG1, kappa, L234A L235A, V domains shown, Humaneered variant of E2E10, tested as full human IgG; Biotinylated for the neutrophil assay; also called LLG785; LLG785 (FF3)) VH: QVQLVQSGAEVKKPGASVKVSCKASGYTFTDYEVHWVRQAPGQGLEWMGAIHPGSGGAAYVQKFQGRVTMTRDTSISTAYMELSRLRSDDTAVYYCARWLPMDYWGQGTLVTVSS VL: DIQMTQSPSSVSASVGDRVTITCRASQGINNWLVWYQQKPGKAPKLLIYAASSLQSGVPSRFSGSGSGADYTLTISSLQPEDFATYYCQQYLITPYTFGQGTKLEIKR
Marked response: 3.3 nM

Exam item: Retrieve IC50 measured for FF5 (antibody, human IgG1, kappa, L234A L235A, V domains shown, Humaneered variant of E2E10, tested as full human IgG; Biotinylated for the neutrophil assay; also called LLG787; LLG787 (FF5)) VH: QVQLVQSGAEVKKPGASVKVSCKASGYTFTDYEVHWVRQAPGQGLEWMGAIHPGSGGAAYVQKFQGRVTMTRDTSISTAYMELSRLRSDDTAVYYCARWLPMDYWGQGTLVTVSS VL: DIQMTQSPSSVSASVGDRVTITCRASQGINNWLVWYQQKPGKAPKLLLYAASRLESGVPSRFSGSGSGTDYTLTISSLQPEDIATYYCQQYLITPYTFGQGTKLEIKR and print it.
Marked response: 4.1 nM

Exam item: Give the reported IC50 for this binder. FF4 (antibody, human IgG1, kappa, L234A L235A, V domains shown, Humaneered variant of E2E10, tested as full human IgG; the text and claims pair heavy chain 56 with light chain 66; Biotinylated for the neutrophil assay; also called LLG786; LLG786 (FF4)) VH: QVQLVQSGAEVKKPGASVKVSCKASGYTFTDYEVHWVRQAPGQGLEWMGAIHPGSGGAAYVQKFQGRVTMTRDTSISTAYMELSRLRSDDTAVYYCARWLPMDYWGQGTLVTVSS VL: DIQMTQSPSSVSASVGDRVTITCRASQGITNWLAWYQQKPGKAPKLLIYAASILESGVPSRFSGSGSGTDYTLTISSLQPEDIATYYCQQYLITPYTFGQGTKLEIKR
Marked response: 5 nM

Exam item: Using known records, supply IC50 for FF6 (antibody, human IgG1, kappa, L234A L235A, V domains shown, Humaneered variant of E2E10, tested as full human IgG; Biotinylated for the neutrophil assay; also called LLG788; LLG788 (FF6)) VH: QVQLVQSGAEVKKPGASVKVSCKASGYTFTDYEVHWVRQAPGQGLEWMGAIHPGSGGAAYVQKFQGRVTMTRDTSISTAYMELSRLRSDDTAVYYCARWLPIDYWGQGTLVTVSS VL: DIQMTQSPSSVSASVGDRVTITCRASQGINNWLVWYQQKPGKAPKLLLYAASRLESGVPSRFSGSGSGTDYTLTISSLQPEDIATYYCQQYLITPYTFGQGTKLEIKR
Marked response: 5.9 nM
